Target: human VDR (Homo sapiens)
Sequence (P11473 whole entry): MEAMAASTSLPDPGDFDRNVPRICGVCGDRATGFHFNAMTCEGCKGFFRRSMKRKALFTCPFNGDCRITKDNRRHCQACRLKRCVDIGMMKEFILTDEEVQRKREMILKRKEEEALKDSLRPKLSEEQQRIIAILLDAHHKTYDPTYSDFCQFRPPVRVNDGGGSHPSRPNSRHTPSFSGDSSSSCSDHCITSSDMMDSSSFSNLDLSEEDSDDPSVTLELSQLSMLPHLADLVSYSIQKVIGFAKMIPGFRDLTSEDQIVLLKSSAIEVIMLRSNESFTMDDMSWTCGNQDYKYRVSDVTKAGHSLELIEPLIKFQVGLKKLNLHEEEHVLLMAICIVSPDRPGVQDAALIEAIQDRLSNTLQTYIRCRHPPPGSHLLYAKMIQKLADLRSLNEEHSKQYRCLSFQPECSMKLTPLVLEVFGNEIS
Sequence (P19793 whole entry partner): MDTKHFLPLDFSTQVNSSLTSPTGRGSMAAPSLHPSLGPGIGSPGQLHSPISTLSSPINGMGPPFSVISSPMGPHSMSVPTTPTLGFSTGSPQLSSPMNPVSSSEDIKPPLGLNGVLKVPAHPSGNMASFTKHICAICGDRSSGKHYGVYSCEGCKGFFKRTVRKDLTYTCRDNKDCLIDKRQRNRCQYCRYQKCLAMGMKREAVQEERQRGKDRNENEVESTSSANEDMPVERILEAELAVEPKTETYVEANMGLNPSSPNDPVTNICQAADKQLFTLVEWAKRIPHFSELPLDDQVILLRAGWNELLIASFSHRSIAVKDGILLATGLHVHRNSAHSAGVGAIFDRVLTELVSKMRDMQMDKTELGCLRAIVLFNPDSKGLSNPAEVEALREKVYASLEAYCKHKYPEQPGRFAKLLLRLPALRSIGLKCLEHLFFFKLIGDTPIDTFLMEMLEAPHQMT
Assay: Evaluation of VDR transcription activity in human osteoblasts (HOS cells), luciferase reporter
Conditions: Activity (EC50, VDR transcription activity), HOS cells transfected with human VDR, human RXRα and DR3 luciferase reporter; 21 hours
Readout Type: EC50

Data request, read-out EC50, for `C[C@@H](CN1CCC(C(F)F)CC1)[C@H]1CC[C@H]2/C(=C/C=C3C[C@@H](O)C[C@H](O)C3)CCC[C@]12C`
10 to 100 nM

Data request, read-out EC50, for `C=C1[C@H](O)CC(=C/C=C2\CCC[C@]3(C)[C@@H]([C@H](C)CCN4CCO[C@@H](C)C4)CC[C@@H]23)C[C@H]1O`
10 to 100 nM

Data request, read-out EC50, for `C=C1/C(=C\C=C2/CCC[C@]3(C)[C@@H]([C@@H](C)CN4CCC(F)CC4)CC[C@@H]23)C[C@@H](O)C[C@@H]1O`
10 to 100 nM

Data request, read-out EC50, for `C=C1/C(=C\C=C2/CCC[C@]3(C)[C@@H]([C@H](C)CN4CC[C@H](C(F)F)C4)CC[C@@H]23)C[C@@H](O)[C@H](C)[C@@H]1O`
10 to 100 nM

Data request, read-out EC50, for `C[C@H](CCCN1CCOCC1)[C@H]1CC[C@H]2/C(=C/C=C3C[C@@H](O)C[C@H](O)C3)CCC[C@]12C`
1 to 10 nM

Data request, read-out EC50, for C=C1[C@H](O)CC(=C/C=C2\CCC[C@]3(C)[C@@H]([C@H](C)CN4CCCC(O)(C(F)F)C4)CC[C@@H]23)C[C@H]1O (single isomer, unassigned) [Compound C036a]
< 1 nM

Data request, read-out EC50, for `C=C1[C@H](O)CC(=C/C=C2\CCC[C@]3(C)[C@@H]([C@H](C)CN4CC[C@H](C)C4)CC[C@@H]23)C[C@H]1O`
10 to 100 nM

Data request, read-out EC50, for `C=C1[C@H](O)CC(=C/C=C2\CCC[C@]3(C)[C@@H]([C@H](C)CCN4CCO[C@@H](C(F)F)C4)CC[C@@H]23)C[C@H]1O`
1 to 10 nM
